Below, each of the compounds is paired with its reported inhibition value.
biological target: Glucose transporter (Leishmania mexicana); test: ST_JUDE_LEISH: Cytotoxicity at 2uM final concentration against transgenic Leishmania Mexicana promastigotes LmGT2 that are glucose transport deficient and complemented with the L. Mexicana glucose transporter 2. Activity is measured by DNA content using SYBR green in vitro; assay type: functional

Compound: CC(C)Cn1cc(C2CCN(CCN3CCC(CNC(=O)c4ccc(NC(=O)c5ccc(Cl)cc5)cc4)CC3)CC2)c2ccccc21
inhibition: 4.99%

Compound: CCCCCCOc1ccc(C(=O)NCCC2CCN(CCCCCNC(=O)C=Cc3ccc(Cl)c(Cl)c3)CC2)cc1
inhibition: -0.17%

Compound: CCCCNCc1ccc(-c2nc(CN(Cc3ccc(Cl)c(Cl)c3)S(=O)(=O)c3ccc(NC(C)=O)cc3)cs2)cc1
inhibition: 2.51%

Compound: O=C(/C=C/c1ccc(Cl)cc1)NCCCCCN1CCN(C(=O)Nc2ccc(Cl)c(C(F)(F)F)c2)CC1
inhibition: 3.42%

Compound: O=S(=O)(Nc1cccc(CCN2CCC(N3CCCCC3)CC2)c1)c1ccc(-c2ccccc2)cc1
inhibition: 3.57%

Compound: Cc1cccc2nc(-c3cccc(-c4cccc(NC(=O)c5cccnc5)c4)c3)[nH]c12
inhibition: -3.86%

Compound: O=C(Nc1ccc(-c2cccc(-c3nc4cc(C(F)(F)F)ccc4[nH]3)c2)cc1)c1csnn1
inhibition: 14.2%

Compound: CC(C)NCc1cccc(-c2ccc(NC(=O)c3ccc(F)cc3)cc2)c1
inhibition: -0.76%

Compound: COc1ccccc1CNC(=O)c1nn(-c2ccc(Cl)cc2)c(=O)c2ccccc12
inhibition: 3.54%

Compound: CCN(CC)CCN(Cc1ccc(-c2ccc(C(F)(F)F)cc2)cc1)C(=O)Cn1c(CCc2ccc(F)c(F)c2F)nc(=O)c2cccnc21
inhibition: -0.8%

Compound: COc1cccc(OC)c1-c1ccccc1NC(=O)N1CCCc2cc(C)ccc21
inhibition: 2.07%

Compound: CN(CCC(CCN1CCC(c2c[nH]c3ccccc23)CC1)c1ccccc1)C(=O)Nc1ccc(Cl)c(Cl)c1 (configuration not stated)
inhibition: 0.72%
